The entries below come with measured viability, T/C values attached.
Tested on: 422866-222-R5-J1-PDC complex spheroids viability
Experiment: Anticancer human tumor 422866-222-R5-J1-PDC patient-derived pancreatic adenocarcinoma cell line growth inhibition [RAS]
Settings: second compound 0.00949 µM; first compound 0.0316 µM; active compounds read low

compound	output.unit	viability, T/C
CC(C)n1nc(-c2ccc3oc(N)nc3c2)c2c(N)ncnc21 + CCn1c(-c2cccnc2C(C)OC)c2c3cc(ccc31)N1CCOC(CC(NC(=O)C(C(C)C)N(C)C(=O)C3(F)CCN(C(=O)C#CC(C)(C)N(C)C)CC3)C(=O)N3CCCC(N3)C(=O)OCC(C)(C)C2)C1	%	14.7
CC(C)NCC(C(=O)N1CCN(c2ncnc3c2C(C)CC3O)CC1)c1ccc(Cl)cc1 (stereo unspecified) + CCn1c(-c2cc(N3CCN(C)CC3)cnc2C(C)OC)c2c3cc(ccc31)-c1csc(n1)CC(NC(=O)C1CC1C)C(=O)N1CCCC(N1)C(=O)OCC(C)(C)C2	%	20.4
CC(C)n1nc(-c2ccc3oc(N)nc3c2)c2c(N)ncnc21 + CCn1c(-c2cc(N3CCN(C)CC3)cnc2C(C)OC)c2c3cc(ccc31)-c1csc(n1)CC(NC(=O)C1CC1C)C(=O)N1CCCC(N1)C(=O)OCC(C)(C)C2	%	13.8
CCC(CC)c1cc(NC2CCC(N)C2)n2nccc2n1 (stereo unspecified) + CCn1c(-c2cc(N3CCN(C)CC3)cnc2C(C)OC)c2c3cc(ccc31)-c1csc(n1)CC(NC(=O)C1CC1C)C(=O)N1CCCC(N1)C(=O)OCC(C)(C)C2	%	23.4
NC1c2ccccc2OC12CCN(c1cnc3c(N4CCCc5ncccc54)n[nH]c3n1)CC2 (stereo unspecified) + CCn1c(-c2cc(N3CCN(C)CC3)cnc2C(C)OC)c2c3cc(ccc31)-c1csc(n1)CC(NC(=O)C1CC1C)C(=O)N1CCCC(N1)C(=O)OCC(C)(C)C2	%	16.1
C=CC(=O)N1CCN(c2nc(OCC3CCCN3C)nc3c(F)c(-c4nc(N)cc(C)c4C(F)(F)F)c(Cl)cc23)C(C)C1 (stereo unspecified) + CCn1c(-c2cccnc2C(C)OC)c2c3cc(ccc31)N1CCOC(CC(NC(=O)C(C(C)C)N(C)C(=O)C3(F)CCN(C(=O)C#CC(C)(C)N(C)C)CC3)C(=O)N3CCCC(N3)C(=O)OCC(C)(C)C2)C1	%	23.3
CC1(O)CCCC1n1c(=O)c(C(F)F)cc2cnc(NC3CCN(S(C)(=O)=O)CC3)nc21 (stereo unspecified) + CCn1c(-c2cc(N3CCN(C)CC3)cnc2C(C)OC)c2c3cc(ccc31)-c1csc(n1)CC(NC(=O)C1CC1C)C(=O)N1CCCC(N1)C(=O)OCC(C)(C)C2	%	23
Nc1ccn(C2OC(CO)C(O)C2(F)F)c(=O)n1 (stereo unspecified) + CCn1c(-c2cc(N3CCN(C)CC3)cnc2C(C)OC)c2c3cc(ccc31)-c1csc(n1)CC(NC(=O)C1CC1C)C(=O)N1CCCC(N1)C(=O)OCC(C)(C)C2	%	20.4
C[C@@H](NC(=O)c1ncnc(N)c1Cl)c1ncc(C(=O)Nc2cc(C(F)(F)F)c(Cl)cn2)s1 + CCn1c(-c2cc(N3CCN(C)CC3)cnc2C(C)OC)c2c3cc(ccc31)-c1csc(n1)CC(NC(=O)C1CC1C)C(=O)N1CCCC(N1)C(=O)OCC(C)(C)C2	%	21
C=CC(=O)Nc1cc(Nc2nccc(-c3cn(C)c4ccccc34)n2)c(OC)cc1N(C)CCN(C)C + CCn1c(-c2cc(N3CCN(C)CC3)cnc2C(C)OC)c2c3cc(ccc31)-c1csc(n1)CC(NC(=O)C1CC1C)C(=O)N1CCCC(N1)C(=O)OCC(C)(C)C2	%	17
CC(Nc1ccc2c(c1)OCCn1cc(N3C(=O)OCC3C(F)F)nc1-2)C(N)=O (stereo unspecified) + CCn1c(-c2cccnc2C(C)OC)c2c3cc(ccc31)N1CCOC(CC(NC(=O)C(C(C)C)N(C)C(=O)C3(F)CCN(C(=O)C#CC(C)(C)N(C)C)CC3)C(=O)N3CCCC(N3)C(=O)OCC(C)(C)C2)C1	%	14.6
CCC(CC)c1cc(NC2CCC(N)C2)n2nccc2n1 (stereo unspecified) + CCn1c(-c2cccnc2C(C)OC)c2c3cc(ccc31)N1CCOC(CC(NC(=O)C(C(C)C)N(C)C(=O)C3(F)CCN(C(=O)C#CC(C)(C)N(C)C)CC3)C(=O)N3CCCC(N3)C(=O)OCC(C)(C)C2)C1	%	23.8
CC(=O)OC12COC1CC(O)C1(C)C(=O)C(O)C3=C(C)C(OC(=O)C(O)C(NC(=O)OC(C)(C)C)c4ccccc4)CC(O)(C(OC(=O)c4ccccc4)C21)C3(C)C (stereo unspecified) + CCn1c(-c2cc(N3CCN(C)CC3)cnc2C(C)OC)c2c3cc(ccc31)-c1csc(n1)CC(NC(=O)C1CC1C)C(=O)N1CCCC(N1)C(=O)OCC(C)(C)C2	%	14.5
O=C(c1ccc(F)c(F)c1Nc1ccc(I)cc1F)N1CC(O)([C@@H]2CCCCN2)C1 + CCn1c(-c2cccnc2C(C)OC)c2c3cc(ccc31)N1CCOC(CC(NC(=O)C(C(C)C)N(C)C(=O)C3(F)CCN(C(=O)C#CC(C)(C)N(C)C)CC3)C(=O)N3CCCC(N3)C(=O)OCC(C)(C)C2)C1	%	16.2
C=CC(=O)N1CCN(c2nc(OCC3CCCN3C)nc3c(F)c(-c4nc(N)cc(C)c4C(F)(F)F)c(Cl)cc23)C(C)C1 (stereo unspecified) + CCn1c(-c2cc(N3CCN(C)CC3)cnc2C(C)OC)c2c3cc(ccc31)-c1csc(n1)CC(NC(=O)C1CC1C)C(=O)N1CCCC(N1)C(=O)OCC(C)(C)C2	%	17.4
Cc1nc(N2CCC3(CC2)COC(C)C3N)c(CO)nc1Sc1ccnc(N)c1Cl (stereo unspecified) + CCn1c(-c2cccnc2C(C)OC)c2c3cc(ccc31)N1CCOC(CC(NC(=O)C(C(C)C)N(C)C(=O)C3(F)CCN(C(=O)C#CC(C)(C)N(C)C)CC3)C(=O)N3CCCC(N3)C(=O)OCC(C)(C)C2)C1	%	20

---

Test system: 422866-222-R5-J1-PDC complex spheroids viability
Assay: Anticancer human tumor 422866-222-R5-J1-PDC cell line growth inhibition [RAS]; active = viability on the fitted dose curve at most 10% of control; inactive = the rest;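 further: spheroids exposed to compounds for 7 days; 100% = DMSO vehicle control viability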
Conditions: second compound 0.3 µM; first compound 0.316 µM
From the text: RAS pathway inhibitors in Combinations in Complex Spheroids A high-throughput screen of multi-cell type tumor spheroids was designed to identify active combinations of RAS pathway inhibitors and targeted small molecules. Complex spheroids include a stromal component modeled by human endothelial cells (HUVEC) and fibroblasts modeled by human mesenchymal stem cells (MSCs). […] Compounds. […] If the clinical Cmax for an agent had not been determined, the highest concentration tested was 10 microM. […]
Labels: True for active, False for inactive

molecule	class.label
CC(Nc1ccc2c(c1)OCCn1cc(N3C(=O)OCC3C(F)F)nc1-2)C(N)=O (centres undefined) + CCn1c(-c2cc(N3CCN(C)CC3)cnc2C(C)OC)c2c3cc(ccc31)-c1csc(n1)CC(NC(=O)C1CC1C)C(=O)N1CCCC(N1)C(=O)OCC(C)(C)C2	True
Cc1nc(N2CCC3(CC2)COC(C)C3N)c(CO)nc1Sc1ccnc(N)c1Cl (centres undefined) + CCn1c(-c2cccnc2C(C)OC)c2c3cc(ccc31)N1CCOC(CC(NC(=O)C(C(C)C)N(C)C(=O)C3(F)CCN(C(=O)C#CC(C)(C)N(C)C)CC3)C(=O)N3CCCC(N3)C(=O)OCC(C)(C)C2)C1	False
CC(=O)OC12COC1CC(O)C1(C)C(=O)C(O)C3=C(C)C(OC(=O)C(O)C(NC(=O)OC(C)(C)C)c4ccccc4)CC(O)(C(OC(=O)c4ccccc4)C21)C3(C)C (centres undefined) + CCn1c(-c2cccnc2C(C)OC)c2c3cc(ccc31)N1CCOC(CC(NC(=O)C(C(C)C)N(C)C(=O)C3(F)CCN(C(=O)C#CC(C)(C)N(C)C)CC3)C(=O)N3CCCC(N3)C(=O)OCC(C)(C)C2)C1	False
CC1(O)CCCC1n1c(=O)c(C(F)F)cc2cnc(NC3CCN(S(C)(=O)=O)CC3)nc21 (centres undefined) + CCn1c(-c2cc(N3CCN(C)CC3)cnc2C(C)OC)c2c3cc(ccc31)-c1csc(n1)CC(NC(=O)C1CC1C)C(=O)N1CCCC(N1)C(=O)OCC(C)(C)C2	False

---

Tested on: 422866-222-R5-J1-PDC complex spheroids viability
Experiment: Anticancer human tumor 422866-222-R5-J1-PDC cell line growth inhibition [RAS];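 further: spheroids exposed to compounds for 7 days; 100% = DMSO vehicle control viability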
Conditions: second compound 0.003 µM; first compound 0.0949 µM; active compounds read low

molecule	target	viability, T/C / %
CC1(C)CCC(Nc2ncc(C(F)(F)F)c(-c3c[nH]c4c(P(C)(C)=O)c(C#N)ccc34)n2)CN1 (centres undefined) + CCn1c(-c2cccnc2C(C)OC)c2c3cc(ccc31)N1CCOC(CC(NC(=O)C(C(C)C)N(C)C(=O)C3(F)CCN(C(=O)C#CC(C)(C)N(C)C)CC3)C(=O)N3CCCC(N3)C(=O)OCC(C)(C)C2)C1	422866-222-R5-J1-PDC complex spheroids viability	28.6
CCc1c2c(nc3ccc(O)cc13)-c1cc3c(c(=O)n1C2)COC(=O)[C@]3(O)CC + CCn1c(-c2cc(N3CCN(C)CC3)cnc2C(C)OC)c2c3cc(ccc31)-c1csc(n1)CC(NC(=O)C1CC1C)C(=O)N1CCCC(N1)C(=O)OCC(C)(C)C2	422866-222-R5-J1-PDC complex spheroids viability	14.1
CCc1c2c(nc3ccc(O)cc13)-c1cc3c(c(=O)n1C2)COC(=O)[C@]3(O)CC + CCn1c(-c2cccnc2C(C)OC)c2c3cc(ccc31)N1CCOC(CC(NC(=O)C(C(C)C)N(C)C(=O)C3(F)CCN(C(=O)C#CC(C)(C)N(C)C)CC3)C(=O)N3CCCC(N3)C(=O)OCC(C)(C)C2)C1	422866-222-R5-J1-PDC complex spheroids viability	15.5
CC1(C)CCC(Nc2ncc(C(F)(F)F)c(-c3c[nH]c4c(P(C)(C)=O)c(C#N)ccc34)n2)CN1 (centres undefined) + CCn1c(-c2cc(N3CCN(C)CC3)cnc2C(C)OC)c2c3cc(ccc31)-c1csc(n1)CC(NC(=O)C1CC1C)C(=O)N1CCCC(N1)C(=O)OCC(C)(C)C2	422866-222-R5-J1-PDC complex spheroids viability	26.9

Recorded values, source PubChem BioAssay AID2060901.
